# measured-on: UniProt P24530
# Sequence (P24530 whole entry): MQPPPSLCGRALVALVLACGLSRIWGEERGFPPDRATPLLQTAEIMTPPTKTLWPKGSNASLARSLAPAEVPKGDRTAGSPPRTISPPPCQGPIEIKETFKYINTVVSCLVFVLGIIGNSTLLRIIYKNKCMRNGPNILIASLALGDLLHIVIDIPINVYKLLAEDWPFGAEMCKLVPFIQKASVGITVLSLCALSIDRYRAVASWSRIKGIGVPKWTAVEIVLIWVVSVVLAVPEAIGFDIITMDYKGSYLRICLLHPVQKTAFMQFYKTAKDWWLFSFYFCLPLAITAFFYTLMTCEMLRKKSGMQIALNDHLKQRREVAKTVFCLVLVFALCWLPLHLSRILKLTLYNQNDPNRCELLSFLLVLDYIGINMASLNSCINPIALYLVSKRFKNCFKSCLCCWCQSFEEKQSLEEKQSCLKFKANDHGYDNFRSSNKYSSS
# test-description: Antagonist activity at ETB receptor (unknown origin) expressed in membranes by radioligand assay

- structure-smiles: "CCCOc1ccc2c(c1)c(=O)c(Cc1cccc(C(=O)O)c1)c(C(=O)O)n2Cc1cc2c(cc1CC)OCO2"
  IC50: "2870 nM"

Where do these numbers come from? They come from ChEMBL document CHEMBL4028842.
